Entries and their kon values follow.
TEST SYSTEM: T1, human Gal10-His (human, UniProt Q05315 2-142, limits assumed)
T1 construct: also called hGal10-His; human Gal10-His tagged; not shown: His tag
T1 sequence: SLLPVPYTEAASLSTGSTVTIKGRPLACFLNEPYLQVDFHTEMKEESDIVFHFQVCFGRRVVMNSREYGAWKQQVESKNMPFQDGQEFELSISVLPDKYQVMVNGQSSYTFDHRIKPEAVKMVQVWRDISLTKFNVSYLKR
ASSAY SUMMARY: SPR Biacore 3000, hFab on human Gal10-His captured by anti-His CM5
Procedure: The binding properties of the selected clones to human and cynomolgus Gal10 was analyzed via a capture method established on a Biacore 3000 instrument. For this purpose, two approaches were used. In the first, two concentrations of the selected clones were applied on cynomolgus (WGS isoform) Gal10-His capture on a CM5 chip coated with a monoclonal anti-His antibody. The second approach involved a serial dilution that was applied on human or cynomolgus (WGS isoform) Gal10-His in the same set-up.
MEASURED METRIC: kon (M⁻¹ s⁻¹)

{"BINDER": "g7B07_N53A (human Fab) (Fab, V domains shown, VH assembled by inference as for g7B07; Human Fab backbone; also called g7B07_N53A (mean)) VH: EVQLLESGGGLVQPGGSLRLSCAASGFTFRSYDMSWVRQAPGKGLEWVSAIKAGGGITYYADSVKGRFTISRDNSKNTLYLQMNSLRAEDTAVYYCATTHGIGTLGFGSWGQGTLVTVSS VL: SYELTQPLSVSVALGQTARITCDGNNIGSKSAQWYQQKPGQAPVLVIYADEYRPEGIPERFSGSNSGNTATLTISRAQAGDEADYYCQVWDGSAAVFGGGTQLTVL", "MEASURED METRIC": "kon", "MEAS VALUE": 540000}
{"BINDER": "g23H09 (Fab) (Fab, V domains shown, same VH/VL) VH: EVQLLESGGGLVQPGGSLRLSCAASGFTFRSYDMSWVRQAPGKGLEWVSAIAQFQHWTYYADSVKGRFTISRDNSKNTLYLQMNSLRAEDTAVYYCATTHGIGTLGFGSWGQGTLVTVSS VL: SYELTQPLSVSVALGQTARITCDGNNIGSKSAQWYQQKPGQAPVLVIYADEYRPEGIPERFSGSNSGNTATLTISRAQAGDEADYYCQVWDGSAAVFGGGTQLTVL", "MEASURED METRIC": "kon", "MEAS VALUE": 590000}
{"BINDER": "g24F02 (human Fab) (Fab, V domains shown, Human Fab backbone (human CH1, human lambda CL); also called germlined 24F02) VH: EVQLLESGGGLVQPGGSLRLSCAASGFTFSSYAMSWVRQAPGKGLEWVSAINNGGGSTSYADSVKGRFTISRDNSKNTLYLQMNSLRAEDTAVYYCAKGLRVGVLGFDYWGQGTLVTVSS VL: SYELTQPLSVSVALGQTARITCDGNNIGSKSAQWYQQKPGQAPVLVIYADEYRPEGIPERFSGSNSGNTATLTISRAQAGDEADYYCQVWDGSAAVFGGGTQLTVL", "MEASURED METRIC": "kon", "MEAS VALUE": "1.1e+06"}
{"BINDER": "g24F02_N53A (human Fab) (Fab, V domains shown, Human Fab backbone: human CH1 and human lambda constant domain (pUPEX vectors); also called g24F02_N53A_2W) VH: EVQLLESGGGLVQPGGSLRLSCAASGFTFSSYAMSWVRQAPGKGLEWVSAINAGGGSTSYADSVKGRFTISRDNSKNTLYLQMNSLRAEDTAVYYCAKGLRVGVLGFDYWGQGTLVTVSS VL: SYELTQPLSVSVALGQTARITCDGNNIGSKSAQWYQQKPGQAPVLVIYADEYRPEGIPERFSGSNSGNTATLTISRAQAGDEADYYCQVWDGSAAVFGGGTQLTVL", "MEASURED METRIC": "kon", "MEAS VALUE": "1.3e+06"}
